- Test system: 697B cells, BCR-induced NF-kB luciferase reporter luminescence
- TEST NAME: inhibitors of BCR-induced NF-kB activation, dose response, 697B cells, luciferase luminescence (AID 489023)
Active and inactive are the calls of the source. No rule for the calls is given here.
// classify into active, inactive

Query: Please indicate how the test categorized C/C=C(/C)C(=O)OC1Cc2c(ccc3ccc(=O)oc23)OC1(C)C (centres undefined) .
Result: inactive

----------
- System: 697B cells, BCR-induced NF-kB luciferase reporter luminescence
- TEST NAME: inhibitors of BCR-induced NF-kB activation, dose response, 697B cells, luciferase luminescence (AID 489023)
Active and inactive are the calls of the source. The rule behind the calls is not given here.
Hi there, use one of these labels in your reply, thanks! active, inactive

Some entries whose results are on file:
COMPOUND	DISCRETE LABEL
O=C(CCCN1C(=O)S/C(=C\c2ccccc2)C1=O)NNC(=O)c1ccccc1O	active
Cc1ccc(S(=O)(=O)N2CCCCC2CCNC(=O)C(=O)NCc2ccncc2)cc1 (centres undefined)	active
Cc1ccc(C(=O)C[n+]2cc(-c3ccc(C)cc3)n3c2CCCCC3)cc1	inactive

Query: Each compound tested received a call. Report the one for CCN(C(=O)CN1C(=O)NC(c2ccccc2)(c2ccc(C)c(C)c2)C1=O)C1CCCCC1 (centres undefined) .
Result: inactive

----------
- Tested on: 697B cells, BCR-induced NF-kB luciferase reporter luminescence
- TEST NAME: inhibitors of BCR-induced NF-kB activation, dose response, 697B cells, luciferase luminescence (AID 489023)
Active and inactive are the calls of the source. How the calls were made is not given here.
// allowed return values: Yes (active), No (inactive)

Please review the entries below; each comes with its answer.
MOLECULE	DISCRETE LABEL
COC(=O)c1c(NC(=O)c2cccc([N+](=O)[O-])c2)sc(C(N)=O)c1C	No
COc1cc(-c2cc(=O)c3c(O)c(OC)c(OC)c(OC)c3o2)cc(OC)c1OC	No
CCn1c(=O)c2cc(C(=O)NCc3cccs3)sc2c2ccccc21	No
Cn1c(=O)cc(OCCCC(=O)N2CCCCC2)c2ccccc21	No
Cc1[nH]c2ccccc2c1C(=O)CN1C(=O)NC2(CC(C)CC(C)(C)C2)C1=O (stereo not given)	Yes

Query: Check the results log: what was the call for "Cc1ccc(CSc2nnc(SCC(=O)N/N=C/C=C/c3ccccc3[N+](=O)[O-])s2)cc1" ?
Result: No

Query: What classification did "CCN(CC(=O)Nc1c(F)cccc1F)C(=O)c1cc([N+](=O)[O-])ccc1N1CCCCC1" end up with in this test?
Result: Yes

Query: Would you mind telling me which call this test gave "Cc1ccc(-c2nn3c(C)nnc3c3ccccc23)cc1S(=O)(=O)NC(C)(C)CO" ?
Result: No

Query: How did this test come out for "Cc1c(CCC(=O)N2CCC[C@H]2C(=O)O)c(=O)oc2cc3oc4c(c3cc12)CCCC4" ?
Result: No

Query: // param item: "CCN(CC(=O)Nc1c(F)cccc1F)C(=O)c1cc(S(=O)(=O)N(C)C)ccc1N1CCCC1" ; yields the recorded call
Result: Yes

----------
- System: 697B cells, BCR-induced NF-kB luciferase reporter luminescence
- TEST NAME: inhibitors of BCR-induced NF-kB activation, dose response, 697B cells, luciferase luminescence (AID 489023)
The source made the active and inactive calls. No rule for the calls is given here.
Your reply should match one of these outcome classes. active, inactive

COMPOUND SMILES	SYSTEM UNDER TEST	DISCRETE LABEL
CCN(CC)CCOC(=O)c1ccc(NC(=O)COc2cc(=O)n(CC)c3ccccc23)cc1	697B cells, BCR-induced NF-kB luciferase reporter luminescence	inactive
COc1ccc(/C=C2\SC(=O)N(CCCC(=O)Nc3ccc(C(=O)O)cc3)C2=O)cc1OC	697B cells, BCR-induced NF-kB luciferase reporter luminescence	active
Cn1c(=O)n(C)c2cc(C(=O)Nc3ccc4c(c3)OCO4)ccc21	697B cells, BCR-induced NF-kB luciferase reporter luminescence	inactive
Cc1ccc(Sc2cc(NCCCO)c([N+](=O)[O-])c3nonc23)cc1	697B cells, BCR-induced NF-kB luciferase reporter luminescence	inactive
Cc1csc(NC(=O)CCc2c(C)nc3cc(-c4ccc(Cl)cc4)nn3c2C)n1	697B cells, BCR-induced NF-kB luciferase reporter luminescence	active
CCn1c(=S)[nH]c2cc(S(=O)(=O)N3CCCCC3)ccc21	697B cells, BCR-induced NF-kB luciferase reporter luminescence	inactive
COc1ccc(-c2noc(CCCC(=O)O)n2)cc1	697B cells, BCR-induced NF-kB luciferase reporter luminescence	active
CCCc1nc2c(C)cc(-c3nc4ccccc4n3C)cc2n1Cc1ccc(-c2ccccc2C(=O)O)cc1	697B cells, BCR-induced NF-kB luciferase reporter luminescence	inactive

Query: What is the recorded call for this molecule in the test? "CCn1c(=O)cc(SCC(=O)N2CCC3(CC2)OCCO3)c2ccccc21"
Result: inactive

Query: What did the test return for "COc1ccc(-c2ccc(OC)c([C@H]3[C@H]4C=CC[C@@H](C)[C@@H]4C(=O)N3Cc3ccccc3)c2)cc1" ?
Result: inactive

Query: Tell me the recorded outcome of this test for "CCCCOc1ccc(NC(=O)C(=O)NCCCn2ccnc2)cc1" .
Result: active

Query: Which outcome was assigned to "NC(=O)C1CCN(C(=O)COc2ccc3ccccc3c2Br)CC1" in this test?
Result: inactive

Query: What did the test return for "Cc1c(CCC(=O)O)c(=O)oc2cc3oc4c(c3cc12)CCCC4" ?
Result: active

Query: What did this assay record as the result for "CCN1C(=O)c2cccc3c(S(=O)(=O)Nc4ccccn4)ccc1c23" ?
Result: inactive

Query: Kindly provide the recorded test outcome for the following molecule: "CCN(CC(=O)Nc1c(F)cccc1F)C(=O)c1cc(S(=O)(=O)N2CCOCC2)ccc1N1CCCC1"
Result: active

----------
- Test system: 697B cells, BCR-induced NF-kB luciferase reporter luminescence
- TEST NAME: inhibitors of BCR-induced NF-kB activation, dose response, 697B cells, luciferase luminescence (AID 489023)
Active and inactive are the calls of the source. No rule for the calls is given here.
Outcomes you can answer with include only these: active, inactive

These solved cases illustrate the format of a correct answer.
MOLECULE	DISCRETE LABEL
Cc1ccc(C)c(OCc2ccc(C(=O)NN)o2)c1	inactive
COc1ccc(NC(=O)CN(C)C(=O)C2(c3ccccc3)CCCC2)cc1	active
O=C(Nc1ccc(NC(=O)c2cc3ccccc3o2)cc1)c1ccc2c(c1)OCCO2	active
CCCC(=O)Nc1ccc(Sc2ccc([N+](=O)[O-])cc2)cc1	inactive
CN(C)S(=O)(=O)c1ccc(NC(=O)N2CCN(c3ccccc3)CC2)cc1	inactive

Query: Please indicate how the test categorized "N=c1c2c(n(Cc3ccc(Cl)c(Cl)c3)c3c1CCC3)CCCC2" .
Result: inactive

Query: Hi, do you know how "CCc1ccc(/C=C2\SC(=S)N(CCC(=O)NC3=NCCS3)C2=O)cc1" came out in this test?
Result: active

----------
Recorded IC50 values for a group of compounds are listed next.
- Tested on: 697B cells, BCR-induced NF-kB luciferase reporter luminescence
- TEST NAME: inhibitors of BCR-induced NF-kB activation, dose response, 697B cells, luciferase luminescence (AID 489023)
The source made the active and inactive calls. The rule behind the calls is not given here.

Use these answered entries as a reference point.
COMPOUND SMILES	SYSTEM UNDER TEST	MEASURED ATTRIBUTE	REPORTED
COc1ccc(-c2noc(N3CCC(C(=O)Nc4ccc(OC)c(OC)c4)CC3)n2)cc1	697B cells, BCR-induced NF-kB luciferase reporter luminescence	IC50	> 80 µM (inactive)
CCc1ccc(/C=C2\SC(=S)N(CCCC(=O)Nc3ccccn3)C2=O)cc1	697B cells, BCR-induced NF-kB luciferase reporter luminescence	IC50	0.55 µM
Cc1csc(NC(=O)/C=C/c2ccc3c(c2)OCO3)n1	697B cells, BCR-induced NF-kB luciferase reporter luminescence	IC50	6.13 µM

Query: Report value: IC50, system: 697B cells, BCR-induced NF-kB luciferase reporter luminescence, compound: "CCn1c(=O)cc(SCC(=O)N2CCN(C(=O)c3ccco3)CC2)c2ccccc21"
Result: > 80 µM (inactive)

Query: Output reported IC50 of the compound "N=c1ccn(Cc2c(Cl)cccc2Cl)cc1" on 697B cells, BCR-induced NF-kB luciferase reporter luminescence.
Result: > 80 µM (inactive)

Query: Give measured IC50 for "N=c1c2c(n(Cc3ccc(Cl)cc3Cl)c3c1CCC3)CCCC2" (697B cells, BCR-induced NF-kB luciferase reporter luminescence).
Result: 40.3 µM (inactive)

----------
- Test system: 697B cells, BCR-induced NF-kB luciferase reporter luminescence
- TEST NAME: inhibitors of BCR-induced NF-kB activation, dose response, 697B cells, luciferase luminescence (AID 489023)
The source made the active and inactive calls. The rule behind the calls is not given here.
Return exactly one item of active, inactive

Query: Check the results log: what was the call for "O=C(CCCN1C(=O)/C(=C/c2ccccc2Cl)SC1=S)NNC(=O)c1ccccc1Cl" ?
Result: active

Query: Hi, do you know how Cc1ccc(C2(c3ccc(C)cc3)CC2C(=O)Nc2ccc([N+](=O)[O-])cc2O)cc1 (stereo not drawn) came out in this test?
Result: inactive

Query: How did this test come out for CC(=O)C1=NN(c2ccccc2)C(c2cccs2)N1c1ccc(N(C)C)cc1 (stereo not drawn) ?
Result: inactive

Query: What outcome does the record of this test show for "COc1cc(/C=N/Nc2nc(Nc3ccccc3)nc(N3CCOCC3)n2)ccc1OC(=O)c1ccco1" ?
Result: active

Query: # outcome recorded in this test, key = "O=C(Nc1cccc(Oc2ccc3c(c2)C(=O)NC3=O)c1)c1cccs1"
Result: inactive

Query: Hi team, can someone confirm the assay call for "O=C(CCl)N(c1ccc(Cl)cc1)c1c[nH]c2ccccc12" ?
Result: active

Query: Recorded test call requested for "Nc1ccccc1SCC(=O)Nc1nc(-c2ccccc2)cs1"
Result: inactive

Query: Please state the recorded outcome for this compound: "CCC(=O)N1c2ccccc2[C@@H](N(C(C)=O)c2ccccc2)C[C@H]1C"
Result: inactive
